target: Neuropeptide FF receptor 2 (Homo sapiens, UniProt Q9Y5X5); assay: Displacement of [3H]FFRF-NH2 from human flag-tagged NPFF2 receptor expressed in CHO cells at 5 uM by scintillation counting; format: cell-based
Sequence (Q9Y5X5 whole entry): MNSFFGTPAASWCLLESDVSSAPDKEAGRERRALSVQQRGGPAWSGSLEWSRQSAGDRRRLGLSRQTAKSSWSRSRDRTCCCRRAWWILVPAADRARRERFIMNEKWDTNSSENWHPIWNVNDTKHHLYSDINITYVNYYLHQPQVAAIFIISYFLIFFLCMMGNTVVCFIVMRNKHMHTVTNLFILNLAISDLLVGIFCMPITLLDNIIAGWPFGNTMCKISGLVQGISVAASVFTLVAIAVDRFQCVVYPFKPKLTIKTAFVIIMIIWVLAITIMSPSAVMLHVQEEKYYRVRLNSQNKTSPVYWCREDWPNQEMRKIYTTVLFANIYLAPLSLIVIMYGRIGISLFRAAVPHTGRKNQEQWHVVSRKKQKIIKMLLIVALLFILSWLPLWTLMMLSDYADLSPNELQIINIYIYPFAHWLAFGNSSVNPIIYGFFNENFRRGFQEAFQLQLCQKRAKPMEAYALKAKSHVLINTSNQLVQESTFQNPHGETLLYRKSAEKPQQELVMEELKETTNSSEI
Each record's inhibition is compared with range A = under 30%, range B = from 30% up to 50%, range C = 50% and over to give its class.

Would you please look over these solved cases?
- chemical_string: "Cc1ccc(CC(=O)N[C@@H](CCCNC(=N)N)C(=O)N[C@@H](Cc2ccccc2)C(N)=O)cc1"
  group_label: "range A"
- chemical_string: "CC(C)(C)c1ccc(C(=O)N[C@@H](CCCNC(=N)N)C(=O)N[C@@H](Cc2ccccc2)C(N)=O)cc1"
  group_label: "range B"
- chemical_string: "COc1ccc(C(=O)N[C@@H](CCCNC(=N)N)C(=O)N[C@@H](Cc2ccccc2)C(N)=O)cc1OC"
  group_label: "range A"
- chemical_string: "N=C(N)NCCC[C@H](NC(=O)/C=C/c1cnc[nH]1)C(=O)N[C@@H](Cc1ccccc1)C(N)=O"
  group_label: "range A"
- chemical_string: "N=C(N)NCCC[C@@H](NC(=O)c1ccccc1-c1ccccc1)C(=O)N[C@H](Cc1ccccc1)C(N)=O"
  group_label: "range C"

input: The entry to classify is COc1ccc(CC(=O)N[C@@H](CCCNC(=N)N)C(=O)N[C@@H](Cc2ccccc2)C(N)=O)cc1OC ; which class holds it?
output: range A

input: Input N=C(N)NCCC[C@H](NC(=O)/C=C/c1cccnc1)C(=O)N[C@@H](Cc1ccccc1)C(N)=O ; output its category
output: range A

====

What inhibition was measured for each of the following?
biological target: Neuropeptide FF receptor 2 (Homo sapiens, UniProt Q9Y5X5); test: Displacement of [3H]FFRF-NH2 from human flag-tagged NPFF2 receptor expressed in CHO cells at 500 nM by scintillation counting; format: cell-based
One number for each entry, in %.

Completed entries (count: 7):
- chemical_string: "N=C(N)NCCC[C@H](NC(=O)c1ccc2nc[nH]c2c1)C(=O)N[C@@H](Cc1ccccc1)C(N)=O"
  measured_metric: "inhibition"
  measurement: 8
- chemical_string: "N=C(N)NCCC[C@@H](NC(=O)Cc1ccccc1)C(=O)N[C@H](Cc1ccccc1)C(N)=O"
  measured_metric: "inhibition"
  measurement: 4
- chemical_string: "N=C(N)NCCC[C@H](NC(=O)Cc1ccc(O)cc1)C(=O)N[C@@H](Cc1ccccc1)C(N)=O"
  measured_metric: "inhibition"
  measurement: 0
- chemical_string: "N=C(N)NCCC[C@H](NC(=O)c1[nH]c2ccccc2c1-c1ccccc1)C(=O)N[C@@H](Cc1ccccc1)C(N)=O"
  measured_metric: "inhibition"
  measurement: 14
- chemical_string: "N=C(N)NCCC[C@H](NC(=O)c1cccc(C(=O)c2ccccc2)c1)C(=O)N[C@@H](Cc1ccccc1)C(N)=O"
  measured_metric: "inhibition"
  measurement: 0
- chemical_string: "N=C(N)NCCC[C@H](NC(=O)/C=C/c1cccnc1)C(=O)N[C@@H](Cc1ccccc1)C(N)=O"
  measured_metric: "inhibition"
  measurement: 6
- chemical_string: "N=C(N)NCCC[C@@H](NC(=O)/C=C/c1ccccc1)C(=O)N[C@H](Cc1ccccc1)C(N)=O"
  measured_metric: "inhibition"
  measurement: 0

Then this compound:
input: Given the compound N=C(N)NCCC[C@@H](NC(=O)c1ccccc1-c1ccccc1)C(=O)N[C@H](Cc1ccccc1)C(N)=O , what is its reported inhibition?
output: 8

====

Answer each item with its documented inhibition.
molecular target: Neuropeptide FF receptor 1 (Homo sapiens, UniProt Q9GZQ6); test: Displacement of [3H]FFRF-NH2 from human flag-tagged NPFF1 receptor expressed in CHO cells at 500 nM by scintillation counting; assay type: cell-based
Sequence (Q9GZQ6 whole entry): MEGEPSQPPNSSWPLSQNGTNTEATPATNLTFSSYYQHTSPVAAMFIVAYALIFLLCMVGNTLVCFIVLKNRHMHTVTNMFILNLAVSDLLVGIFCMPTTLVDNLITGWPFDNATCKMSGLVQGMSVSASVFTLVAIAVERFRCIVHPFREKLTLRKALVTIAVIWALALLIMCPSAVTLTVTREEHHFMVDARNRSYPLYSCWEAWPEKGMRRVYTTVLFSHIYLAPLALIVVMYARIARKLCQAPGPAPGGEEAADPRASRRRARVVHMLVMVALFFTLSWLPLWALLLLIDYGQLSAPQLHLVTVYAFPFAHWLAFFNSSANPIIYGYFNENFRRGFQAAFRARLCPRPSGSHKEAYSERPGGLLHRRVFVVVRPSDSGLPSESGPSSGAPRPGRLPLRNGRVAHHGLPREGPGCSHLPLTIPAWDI
Give bare numbers, in %.

Worked examples follow.
- chemical_string: "CC(C)(C)C(=O)N[C@@H](CCCNC(=N)N)C(=O)N[C@@H](Cc1ccccc1)C(N)=O"
  experimental_target: "Neuropeptide FF receptor 1 (Homo sapiens, UniProt Q9GZQ6)"
  inhibition / %: 35
- chemical_string: "N=C(N)NCCC[C@H](NC(=O)Cc1ccccc1O)C(=O)N[C@@H](Cc1ccccc1)C(N)=O"
  experimental_target: "Neuropeptide FF receptor 1 (Homo sapiens, UniProt Q9GZQ6)"
  inhibition / %: 27
- chemical_string: "N=C(N)NCCC[C@H](NC(=O)c1nc2ccccc2[nH]1)C(=O)N[C@@H](Cc1ccccc1)C(N)=O"
  experimental_target: "Neuropeptide FF receptor 1 (Homo sapiens, UniProt Q9GZQ6)"
  inhibition / %: 35

For each listed entry, give its inhibition.
1. N=C(N)NCCC[C@@H](NC(=O)C12CC3CC(CC(C3)C1)C2)C(=O)N[C@@H](Cc1ccccc1)C(N)=O
2. COc1ccc(/C=C/C(=O)N[C@@H](CCCNC(=N)N)C(=O)N[C@@H](Cc2ccccc2)C(N)=O)cc1OC

output:
1. 85
2. 19

Batch lookup, inhibition per entry.
1. N=C(N)NCCC[C@H](NC(=O)C12CC3CC(CC(C3)C1)C2)C(=O)N[C@H](Cc1ccccc1)C(N)=O
2. COc1ccc(C(=O)N[C@@H](CCCNC(=N)N)C(=O)N[C@@H](Cc2ccccc2)C(N)=O)cn1
3. N=C(N)NCCC[C@H](NC(=O)c1ccc(-c2ccccc2)cc1)C(=O)N[C@@H](Cc1ccccc1)C(N)=O
4. COc1ccc(CC(=O)N[C@@H](CCCNC(=N)N)C(=O)N[C@@H](Cc2ccccc2)C(N)=O)cc1OC

output:
1. 18
2. 19
3. 20
4. 8

====

biological target: Neuropeptide FF receptor 2 (Homo sapiens, UniProt Q9Y5X5); experiment: Displacement of [3H]FFRF-NH2 from human flag-tagged NPFF2 receptor expressed in CHO cells at 500 nM by scintillation counting; type: cell-based
measured_metric: inhibition
Express the reported value numerically, then name its unit.

Here is how some compounds turned out for inhibition.
- chemical_string: "N=C(N)NCCC[C@@H](NC(=O)C12CC3CC(CC(C3)C1)C2)C(=O)N[C@H](Cc1ccccc1)C(N)=O"
  experimental_target: "Neuropeptide FF receptor 2 (Homo sapiens, UniProt Q9Y5X5)"
  measurement: "11%"
- chemical_string: "N=C(N)NCCC[C@H](NC(=O)c1ccco1)C(=O)N[C@@H](Cc1ccccc1)C(N)=O"
  experimental_target: "Neuropeptide FF receptor 2 (Homo sapiens, UniProt Q9Y5X5)"
  measurement: "3%"

Dear reader, for each entry below, please note its inhibition.
1. Cc1ccc(CC(=O)N[C@@H](CCCNC(=N)N)C(=O)N[C@@H](Cc2ccccc2)C(N)=O)cc1
2. N=C(N)NCCC[C@H](NC(=O)CC(c1ccccc1)c1ccccc1)C(=O)N[C@@H](Cc1ccccc1)C(N)=O
3. COc1ccccc1C(=O)N[C@@H](CCCNC(=N)N)C(=O)N[C@@H](Cc1ccccc1)C(N)=O

output:
["5%", "16%", "10%"]

// input: 3 compounds below; output: inhibition for each
1. N=C(N)NCCC[C@@H](NC(=O)c1cccc(-c2ccccc2)c1)C(=O)N[C@@H](Cc1ccccc1)C(N)=O
2. N=C(N)NCCC[C@H](NC(=O)c1ccc2ccccc2n1)C(=O)N[C@@H](Cc1ccccc1)C(N)=O
3. COc1ccc(CC(=O)N[C@@H](CCCNC(=N)N)C(=O)N[C@@H](Cc2ccccc2)C(N)=O)cc1OC

output:
65%
28%
0%

====

molecular target: UniProtKB Q9Y5X5; experiment: Displacement of [3H]FFRF-NH2 from human flag-tagged NPFF2 receptor expressed in CHO cells at 500 nM by scintillation counting; format: cell-based
measured_metric: inhibition (%)
Give bare numbers, in %.

The following compounds each have a reported value; give each one's inhibition.
1. N=C(N)NCCC[C@@H](NC(=O)c1cccc(-c2ccccc2)c1)C(=O)N[C@H](Cc1ccccc1)C(N)=O
2. N=C(N)NCCC[C@H](NC(=O)c1ccccc1)C(=O)N[C@@H](Cc1ccccc1)C(N)=O
3. N=C(N)NCCC[C@H](NC(=O)c1nc2ccccc2[nH]1)C(=O)N[C@@H](Cc1ccccc1)C(N)=O

output:
1: 6; 2: 32; 3: 12

input: API: value(readout=inhibition, system=UniProtKB Q9Y5X5) for record N=C(N)NCCC[C@H](NC(=O)c1ccc(Cl)cc1)C(=O)N[C@@H](Cc1ccccc1)C(N)=O
output: 3

====

target: Neuropeptide FF receptor 2 (Homo sapiens, UniProt Q9Y5X5); assay: Displacement of [3H]FFRF-NH2 from human flag-tagged NPFF2 receptor expressed in CHO cells at 5 uM by scintillation counting; assay type: cell-based
Provide the reported inhibition of each item.
Answers are plain numbers, in %.

Past entries and their recorded results:
- compound: "N=C(N)NCCC[C@H](NC(=O)Cc1ccccc1)C(=O)N[C@@H](Cc1ccccc1)C(N)=O"
  experimental_target: "Neuropeptide FF receptor 2 (Homo sapiens, UniProt Q9Y5X5)"
  inhibition (%): 52
- compound: "N=C(N)NCCC[C@H](NC(=O)/C=C/c1ccccc1)C(=O)N[C@@H](Cc1ccccc1)C(N)=O"
  experimental_target: "Neuropeptide FF receptor 2 (Homo sapiens, UniProt Q9Y5X5)"
  inhibition (%): 46

// each compound listed below needs its inhibition
1. COc1ccc(C(=O)N[C@@H](CCCNC(=N)N)C(=O)N[C@@H](Cc2ccccc2)C(N)=O)cn1
2. N=C(N)NCCC[C@@H](NC(=O)C12CC3CC(CC(C3)C1)C2)C(=O)N[C@@H](Cc1ccccc1)C(N)=O
3. N=C(N)NCCC[C@H](NC(=O)Cc1ccc(O)cc1)C(=O)N[C@@H](Cc1ccccc1)C(N)=O
4. N=C(N)NCCC[C@H](NC(=O)c1ccc(Cl)cc1Cl)C(=O)N[C@@H](Cc1ccccc1)C(N)=O

output:
[54, 60, 26, 38]
